Would you mind telling me the reported IC50 of each entry?
assay: Inhibition of collagenase type 5
Numbers only, in µM.

As a guide, the following entries are already answered.
COC(=O)[C@]1(O)C[C@@H](O)[C@@H](OC(=O)/C=C/c2ccc(O)c(O)c2)[C@H](OC(=O)/C=C/c2ccc(O)c(O)c2)C1	26.6
O=C(/C=C/c1ccc(O)c(O)c1)O[C@@H]1[C@H](O)C[C@@](O)(C(=O)O)C[C@H]1OC(=O)/C=C/c1ccc(O)c(O)c1	37.2
O=C(/C=C/c1ccc(O)c(O)c1)O[C@@H]1C[C@](O)(C(=O)O)C[C@@H](OC(=O)/C=C/c2ccc(O)c(O)c2)[C@H]1O	23.6
COC(=O)[C@]1(O)C[C@@H](OC(=O)/C=C/c2ccc(O)c(O)c2)[C@@H](O)[C@H](OC(=O)/C=C/c2ccc(O)c(O)c2)C1	5.8
COC(=O)[C@@]1(O)C[C@@H](O)[C@H](OC(=O)/C=C/c2ccc(O)c(O)c2)[C@H](OC(=O)/C=C/c2ccc(O)c(O)c2)C1	16.2
CC(C)C[C@H](NP(=O)(O)O[C@@H]1O[C@@H](C)[C@H](O)[C@@H](O)[C@H]1O)C(=O)N[C@@H](Cc1c[nH]c2ccccc12)C(=O)O [PHOSPHORAMIDON]	0.6

// each listed compound needs a value for IC50
1. O=C(/C=C/c1ccc(O)c(O)c1)O[C@@H]1[C@H](OC(=O)/C=C/c2ccc(O)cc2)C[C@@](OC(=O)/C=C/c2ccc(O)cc2)(C(=O)O)C[C@H]1OC(=O)/C=C/c1ccc(O)c(O)c1
2. O=C(O)/C=C/c1ccc(O)c(O)c1 [CAFFEIC ACID]
3. O=C(/C=C/c1ccc(O)c(O)c1)O[C@@H]1C[C@](O)(C(=O)O)C[C@@H](OC(=O)/C=C/c2ccc(O)c(O)c2)[C@H]1OC(=O)/C=C/c1ccc(O)cc1

1. 14.2
2. 82.7
3. 19.1
